Where these numbers come from: patent US10590113B2

pEC50 reference
- SYSTEM_UNDER_TEST: human APJ receptor (Homo sapiens)
- Construct: expressed in transfected cells; host or cells: HEK293
- EXPERIMENT_SUMMARY: Intracellular cAMP Accumulation Assay (APJ hcAMP, HTRF)
- Format: cell-based
- ASSAY_SETUP: human APJ, intracellular cAMP accumulation; read-out: hAPJ cAMP EC50 Potency range
pEC50: −log10 of the molar value.

[
  {
    "COMPOUND": "CC[C@@H](c1cc(F)cc(F)c1)n1c(-c2ccn(CC)n2)nc(=O)c(C(=O)N2CCC(c3ncc(F)cc3F)C2)c1O (single isomer, unassigned) [Example 215]",
    "pEC50": "8.00 to 11.00"
  },
  {
    "COMPOUND": "CCCCc1nc(=O)c(C(=O)N2CC[C@@H](c3ccccc3)C2)c(O)n1[C@H](C)C1CC1",
    "pEC50": "6.52 to 7.00"
  },
  {
    "COMPOUND": "CCCCc1nc(=O)c(C(=O)N2Cc3ccc(C#N)cc3C2)c(O)n1-c1c(OC)cccc1OC",
    "pEC50": "8.00 to 11.00"
  },
  {
    "COMPOUND": "CCCCc1nc(=O)c(C(=O)N2CC[C@@H](c3ccccc3)C2)c(O)n1C(C)C",
    "pEC50": "6.52 to 7.00"
  },
  {
    "COMPOUND": "CCCCc1nc(=O)c(C(=O)N2CC[C@H](c3ccccc3)C2)c(O)n1[C@H](COC)c1ccccc1",
    "pEC50": "7.00 to 8.00"
  },
  {
    "COMPOUND": "CCCCc1nc(=O)c(C(=O)N2CC[C@@H](c3ccccc3)C2)c(O)n1C(C)c1cccnc1 (stereo partly shown)",
    "pEC50": "7.00 to 8.00"
  },
  {
    "COMPOUND": "CCCCc1nc(=O)c(C(=O)N2CC[C@H](c3ccccc3)C2)c(O)n1[C@H](C)c1ccccc1",
    "pEC50": "8.00 to 11.00"
  },
  {
    "COMPOUND": "COc1cccc(OC)c1-n1c(CCC2CC2)nc(=O)c(C(=O)N2CCC(c3ncc(F)cc3F)C2)c1O (single isomer, unassigned) [Example 169]",
    "pEC50": "8.00 to 11.00"
  },
  {
    "COMPOUND": "CCOCc1nc(=O)c(C(=O)N2CCC(c3cccc(F)c3)C2)c(O)n1-c1c(OC)cccc1OC (single isomer, unassigned) [Example 84]",
    "pEC50": "8.00 to 11.00"
  },
  {
    "COMPOUND": "CCCCc1nc(=O)c(C(=O)N2CCC(c3ccc(F)cc3)C2)c(O)n1-c1c(OC)cccc1OC (single isomer, unassigned) [Example 79]",
    "pEC50": "8.00 to 11.00"
  },
  {
    "COMPOUND": "CC[C@@H](c1cc(F)cc(F)c1)n1c(-c2cnn(C)c2)nc(=O)c(C(=O)N2CCC(c3ccc(F)cn3)C2)c1O (single isomer, unassigned) [Example 220]",
    "pEC50": "8.00 to 11.00"
  },
  {
    "COMPOUND": "COc1cccc(OC)c1-n1c(CCC(C)C)nc(=O)c(C(=O)N2CC[C@H](c3ccccc3)C2)c1O",
    "pEC50": "8.00 to 11.00"
  },
  {
    "COMPOUND": "COc1cccc(OC)c1-n1c(COC(C)C)nc(=O)c(C(=O)N2CCC(c3ccccc3Cl)C2)c1O (single isomer, unassigned)",
    "pEC50": "8.00 to 11.00"
  }
]

---

- SYSTEM_UNDER_TEST: human APJ receptor (Homo sapiens, UniProt P35414)
- Construct: expressed in transfected cells; host or cells: HEK293
- Sequence (P35414 whole entry): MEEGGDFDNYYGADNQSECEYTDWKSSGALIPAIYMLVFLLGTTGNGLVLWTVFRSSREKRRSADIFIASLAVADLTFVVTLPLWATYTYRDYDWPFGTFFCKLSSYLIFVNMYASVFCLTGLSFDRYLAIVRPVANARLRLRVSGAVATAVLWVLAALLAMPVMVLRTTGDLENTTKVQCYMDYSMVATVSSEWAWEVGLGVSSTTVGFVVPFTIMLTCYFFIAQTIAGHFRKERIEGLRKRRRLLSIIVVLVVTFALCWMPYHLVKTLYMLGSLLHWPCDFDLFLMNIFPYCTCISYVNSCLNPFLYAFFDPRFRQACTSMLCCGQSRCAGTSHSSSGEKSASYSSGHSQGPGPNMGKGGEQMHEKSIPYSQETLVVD
- EXPERIMENT_SUMMARY: Intracellular cAMP Accumulation Assay (APJ hcAMP, HTRF)
- Format: cell-based
- ASSAY_SETUP: human APJ, intracellular cAMP accumulation; read-out: hAPJ cAMP EC50 Potency range
EC50 reference

[
  {
    "COMPOUND": "CC[C@@H](c1cc(F)cc(F)c1)n1c(-c2cnn(C)c2)nc(=O)c(C(=O)N2CCC(c3ccc(Cl)cn3)C2)c1O (single isomer, unassigned) [Example 183]",
    "EC50": "0.01 to 10 nM"
  },
  {
    "COMPOUND": "CC[C@@H](c1cc(F)cc(F)c1)n1c(-c2cnn(C)c2)nc(=O)c(C(=O)N2CCC(c3ncc(F)cc3F)C2)c1O (single isomer, unassigned) [Example 188]",
    "EC50": "0.01 to 10 nM"
  },
  {
    "COMPOUND": "CC[C@@H](c1cc(F)cc(F)c1)n1c(-c2nc(C)cs2)nc(=O)c(C(=O)N2CCC(c3ccc(Cl)cn3)C2)c1O (single isomer, unassigned)",
    "EC50": "0.01 to 10 nM"
  }
]

---

- SYSTEM_UNDER_TEST: human APJ receptor (Homo sapiens)
- Construct: expressed in transfected cells; host or cells: HEK293
- EXPERIMENT_SUMMARY: Intracellular cAMP Accumulation Assay (APJ hcAMP, HTRF)
- Type: cell-based
- ASSAY_SETUP: human APJ, cAMP accumulation; potency range class; read-out: hAPJ cAMP EC50 Potency range
pEC50: −log10 of the molar value.
pEC50 reference
PROPERTY_LABEL: pEC50

[
  {
    "MOLECULE": "CC[C@@H](c1ccccc1)n1c(-c2nc(C)cs2)nc(=O)c(C(=O)N2CCC(c3ccccc3F)C2)c1O (single isomer, unassigned) [Example 324]",
    "SYSTEM_UNDER_TEST": "human APJ receptor (Homo sapiens)",
    "PROPERTY_LABEL": "pEC50",
    "RESULT": "8.00 to 11.00"
  },
  {
    "MOLECULE": "CCc1cccc(CC)c1-n1c(-c2ccn(CC(C)C)n2)nc(=O)c(C(=O)N2CCC(c3ncc(F)cc3F)C2)c1O (single isomer, unassigned) [Example 320]",
    "SYSTEM_UNDER_TEST": "human APJ receptor (Homo sapiens)",
    "PROPERTY_LABEL": "pEC50",
    "RESULT": "7.00 to 8.00"
  },
  {
    "MOLECULE": "CCc1cccc(CC)c1-n1c(-c2ccn(C(C)C)n2)nc(=O)c(C(=O)N2CCC(c3ccccc3F)C2)c1O (single isomer, unassigned) [Example 295]",
    "SYSTEM_UNDER_TEST": "human APJ receptor (Homo sapiens)",
    "PROPERTY_LABEL": "pEC50",
    "RESULT": "8.00 to 11.00"
  },
  {
    "MOLECULE": "CCc1cccc(CC)c1-n1c(-c2csc(C(C)C)n2)nc(=O)c(C(=O)N2CC[C@@H](c3ccccc3)C2)c1O [Example 299]",
    "SYSTEM_UNDER_TEST": "human APJ receptor (Homo sapiens)",
    "PROPERTY_LABEL": "pEC50",
    "RESULT": "8.00 to 11.00"
  },
  {
    "MOLECULE": "CCc1cccc(CC)c1-n1c(-c2nc(C)cs2)nc(=O)c(C(=O)N2CCC(c3ncccc3F)C2)c1O (single isomer, unassigned) [Example 307]",
    "SYSTEM_UNDER_TEST": "human APJ receptor (Homo sapiens)",
    "PROPERTY_LABEL": "pEC50",
    "RESULT": "8.00 to 11.00"
  },
  {
    "MOLECULE": "CCc1cccc(CC)c1-n1c(COC(C)C)nc(O)c(C(=O)N2CCC(c3ccc(Cl)nc3)CC2)c1=O [Example 222]",
    "SYSTEM_UNDER_TEST": "human APJ receptor (Homo sapiens)",
    "PROPERTY_LABEL": "pEC50",
    "RESULT": "6.52 to 7.00"
  }
]

---

- SYSTEM_UNDER_TEST: human APJ receptor (Homo sapiens)
- Construct: expressed in transfected cells; host or cells: HEK293
- EXPERIMENT_SUMMARY: Intracellular cAMP Accumulation Assay (APJ hcAMP, HTRF)
- Format: cell-based
- ASSAY_SETUP: human APJ, intracellular cAMP accumulation; read-out: hAPJ cAMP EC50 Potency range
EC50 reference

[
  {
    "COMPOUND": "COc1cccc(OC)c1-n1c(COC(C)C)nc(=O)c(C(=O)N2CCC(c3ccc(F)cc3)C2)c1O (single isomer, unassigned) [Example 94]",
    "SYSTEM_UNDER_TEST": "human APJ receptor (Homo sapiens)",
    "EC50": "0.01 to 10 nM"
  },
  {
    "COMPOUND": "CCOCc1nc(=O)c(C(=O)N2CCC(c3cccc(Cl)c3)C2)c(O)n1-c1c(OC)cccc1OC (racemic)",
    "SYSTEM_UNDER_TEST": "human APJ receptor (Homo sapiens)",
    "EC50": "0.01 to 10 nM"
  },
  {
    "COMPOUND": "CCCCc1nc(=O)c(C(=O)N2CC[C@H](c3ccccc3)C2)c(O)n1[C@H](C)C1CC1",
    "SYSTEM_UNDER_TEST": "human APJ receptor (Homo sapiens)",
    "EC50": "10 to 100 nM"
  },
  {
    "COMPOUND": "CCCCc1nc(=O)c(C(=O)N2CC[C@H](c3ccccc3)C2)c(O)n1[C@@H](C)c1ccccc1OC",
    "SYSTEM_UNDER_TEST": "human APJ receptor (Homo sapiens)",
    "EC50": "100 to 300 nM"
  },
  {
    "COMPOUND": "CCCCc1nc(=O)c(C(=O)N2CCC(c3cccc(F)c3)C2)c(O)n1[C@@H](CC)c1ccccc1 (single isomer, unassigned) [Example 115]",
    "SYSTEM_UNDER_TEST": "human APJ receptor (Homo sapiens)",
    "EC50": "0.01 to 10 nM"
  },
  {
    "COMPOUND": "CC[C@@H](c1cc(F)cc(F)c1)n1c(-c2ccn(C)n2)nc(=O)c(C(=O)N2CCC(c3ccc(F)cn3)C2)c1O (single isomer, unassigned) [Example 185]",
    "SYSTEM_UNDER_TEST": "human APJ receptor (Homo sapiens)",
    "EC50": "0.01 to 10 nM"
  },
  {
    "COMPOUND": "CC[C@@H](c1cc(F)cc(F)c1)n1c(-c2ccn(C)n2)nc(=O)c(C(=O)N2CCC(c3ccccc3F)C2)c1O (single isomer, unassigned)",
    "SYSTEM_UNDER_TEST": "human APJ receptor (Homo sapiens)",
    "EC50": "0.01 to 10 nM"
  },
  {
    "COMPOUND": "COc1cccc(OC)c1-n1c(COC(C)C)nc(=O)c(C(=O)N2CCC(c3ccc(F)cc3F)C2)c1O (single isomer, unassigned) [Example 163]",
    "SYSTEM_UNDER_TEST": "human APJ receptor (Homo sapiens)",
    "EC50": "0.01 to 10 nM"
  },
  {
    "COMPOUND": "COc1cccc(OC)c1-n1c(COC2CC2)nc(=O)c(C(=O)N2CCC(c3ccccc3Cl)C2)c1O (single isomer, unassigned)",
    "SYSTEM_UNDER_TEST": "human APJ receptor (Homo sapiens)",
    "EC50": "0.01 to 10 nM"
  },
  {
    "COMPOUND": "CCCCc1nc(=O)c(C(=O)N2CC[C@@H](c3ccccc3)C2)c(O)n1[C@@H](C)c1ccccc1",
    "SYSTEM_UNDER_TEST": "human APJ receptor (Homo sapiens)",
    "EC50": "0.01 to 10 nM"
  },
  {
    "COMPOUND": "COc1cccc(OC)c1-n1c(COC(C)C)nc(=O)c(C(=O)N2CC[C@H](c3ccccc3)C2)c1O",
    "SYSTEM_UNDER_TEST": "human APJ receptor (Homo sapiens)",
    "EC50": "0.01 to 10 nM"
  },
  {
    "COMPOUND": "CC[C@@H](c1cc(F)cc(F)c1)n1c(-c2cnn(C)c2)nc(=O)c(C(=O)N2CCC(c3cc(F)ccn3)C2)c1O (single isomer, unassigned)",
    "SYSTEM_UNDER_TEST": "human APJ receptor (Homo sapiens)",
    "EC50": "0.01 to 10 nM"
  },
  {
    "COMPOUND": "CCCCc1nc(=O)c(C(=O)N2CC[C@@H](OCc3ccccc3)C2)c(O)n1-c1c(OC)cccc1OC",
    "SYSTEM_UNDER_TEST": "human APJ receptor (Homo sapiens)",
    "EC50": "0.01 to 10 nM"
  }
]
